Just for reference, ChEMBL document CHEMBL6120977 is where these values come from.

Listing of entries alongside the reported Drug uptake.
Experiment: Biodistribution in male ddY mouse pancreas administered intravenously and measured at 10 mins postinjection by gamma counter analysis
Format: ADME, organism-based
Settings: in vivo, iv

Some compounds with known Drug uptake results, for comparison:
# Mol, Observed value
records = [
    ("C[C@H]1CN(c2nc3ccc(F)cc3s2)CCCN1C(=O)c1cc([18F])ccc1-n1nccn1", "2.88 % ID/g"),
    ("Cc1ccc(-n2nccn2)c(C(=O)N2CCCN(c3nc4cc([18F])ccc4s3)C[C@@H]2C)c1", "4.87 % ID/g"),
    ("Cc1ccc(-n2nccn2)c(C(=O)N2CCCN(c3nc4ccc([18F])cc4s3)C[C@@H]2C)c1", "2.95 % ID/g"),
]

stdin: Quick check: Drug uptake of "C[C@H]1CN(c2nc3ccccc3s2)CCCN1C(=O)c1cc([18F])ccc1-n1nccn1" ?
stdout: 3.1 % ID/g

---

Test: Biodistribution in male ddY mouse stomach administered intravenously and measured per organ at 60 mins postinjection by gamma counter analysis
Type: ADME, organism-based
Conditions: in vivo, iv, 1 h
List of Drug uptake values.
Please state the figure in %ID; there is no need to write the unit.

# Mol, Unit of measure, Drug uptake
measured = [
    ("C[C@H]1CN(c2nc3ccccc3s2)CCCN1C(=O)c1cc([18F])ccc1-n1nccn1", "%ID", 1.05),
    ("Cc1ccc(-n2nccn2)c(C(=O)N2CCCN(c3nc4cc([18F])ccc4s3)C[C@@H]2C)c1", "%ID", 1.97),
]

stdin: Consider the compound "Cc1ccc(-n2nccn2)c(C(=O)N2CCCN(c3nc4ccc([18F])cc4s3)C[C@@H]2C)c1" and give its measured Drug uptake.
stdout: 0.87

stdin: And the next one, "C[C@H]1CN(c2nc3ccc(F)cc3s2)CCCN1C(=O)c1cc([18F])ccc1-n1nccn1" ?
stdout: 2.13

---

Test: Biodistribution in male ddY mouse brain administered intravenously and measured at 30 mins postinjection by gamma counter analysis
Format: ADME, organism-based
Settings: in vivo, iv, 0.5 h
Entries and their measured Drug uptake follow.
Express your answer as a number followed by its unit.

Solved cases (3 shown):
# Mol, Observed value
rows = [
    ("C[C@H]1CN(c2nc3ccccc3s2)CCCN1C(=O)c1cc([18F])ccc1-n1nccn1", "0.17 % ID/g"),
    ("C[C@H]1CN(c2nc3ccc(F)cc3s2)CCCN1C(=O)c1cc([18F])ccc1-n1nccn1", "0.29 % ID/g"),
    ("Cc1ccc(-n2nccn2)c(C(=O)N2CCCN(c3nc4ccc([18F])cc4s3)C[C@@H]2C)c1", "0.22 % ID/g"),
]

Could you now consider this next molecule?
stdin: What does the record list as Drug uptake for "Cc1ccc(-n2nccn2)c(C(=O)N2CCCN(c3nc4cc([18F])ccc4s3)C[C@@H]2C)c1" ?
stdout: 0.39 % ID/g

---

Test: Biodistribution in male ddY mouse kidney administered intravenously and measured at 60 mins postinjection by gamma counter analysis
Assay type: ADME, organism-based
Settings: in vivo, iv, 1 h
Assay metric: Drug uptake (% ID/g)
Reply numerically in % ID/g, unit not repeated.

# Mol, Assay metric, Observed value
data = [
    ("C[C@H]1CN(c2nc3ccccc3s2)CCCN1C(=O)c1cc([18F])ccc1-n1nccn1", "Drug uptake", 1.84),
    ("Cc1ccc(-n2nccn2)c(C(=O)N2CCCN(c3nc4ccc([18F])cc4s3)C[C@@H]2C)c1", "Drug uptake", 0.81),
    ("C[C@H]1CN(c2nc3ccc(F)cc3s2)CCCN1C(=O)c1cc([18F])ccc1-n1nccn1", "Drug uptake", 0.88),
]

stdin: What does the record list as Drug uptake for "Cc1ccc(-n2nccn2)c(C(=O)N2CCCN(c3nc4cc([18F])ccc4s3)C[C@@H]2C)c1" ?
stdout: 1.64

---

Assay: Biodistribution in male ddY mouse intestine administered intravenously and measured at 2 mins postinjection by gamma counter analysis
Assay type: ADME, organism-based
Conditions: in vivo, iv
Assay metric: Drug uptake (% ID/g)
A number alone suffices; assume % ID/g.

Some solved cases for reference:
# Mol, Drug uptake [% ID/g]
measured = [
    ("Cc1ccc(-n2nccn2)c(C(=O)N2CCCN(c3nc4ccc([18F])cc4s3)C[C@@H]2C)c1", 3.33),
    ("C[C@H]1CN(c2nc3ccc(F)cc3s2)CCCN1C(=O)c1cc([18F])ccc1-n1nccn1", 2.93),
    ("C[C@H]1CN(c2nc3ccccc3s2)CCCN1C(=O)c1cc([18F])ccc1-n1nccn1", 4.74),
]

# next compound below
stdin: Report Drug uptake for "Cc1ccc(-n2nccn2)c(C(=O)N2CCCN(c3nc4cc([18F])ccc4s3)C[C@@H]2C)c1" please.
stdout: 3.5

---

Target: Orexin receptor type 2 (Homo sapiens, UniProt O43614)
Sequence (O43614 whole entry): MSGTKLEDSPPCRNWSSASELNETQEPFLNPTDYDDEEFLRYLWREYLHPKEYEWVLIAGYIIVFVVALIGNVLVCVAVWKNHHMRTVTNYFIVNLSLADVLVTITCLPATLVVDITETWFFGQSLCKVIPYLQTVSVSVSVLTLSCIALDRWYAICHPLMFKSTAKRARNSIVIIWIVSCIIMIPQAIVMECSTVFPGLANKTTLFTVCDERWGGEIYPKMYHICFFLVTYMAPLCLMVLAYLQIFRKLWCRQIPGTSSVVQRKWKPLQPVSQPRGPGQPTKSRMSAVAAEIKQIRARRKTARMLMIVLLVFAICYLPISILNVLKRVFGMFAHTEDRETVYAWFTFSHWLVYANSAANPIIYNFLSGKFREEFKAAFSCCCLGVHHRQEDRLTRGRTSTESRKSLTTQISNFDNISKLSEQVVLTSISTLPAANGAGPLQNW
Test: Displacement of [3H]EMPA from recombinant human OX2R extracted from HEK293T membrane by radioligand binding assay
Type: cell membranes
Reported pIC50 values are given for each entry in this list.
Just the number, please; pIC50 means minus log10 of the concentration in mol/L.

# Mol, Target desc, pIC50
rows = [
    ("CC[C@H](C)[C@H]1CN(c2nc3cc(Cl)ccc3o2)CCCN1C(=O)c1cc(C)ccc1-n1nccn1", "Orexin receptor type 2 (Homo sapiens, UniProt O43614)", 7.27),
]

stdin: Lab request: please report pIC50 under test system Orexin receptor type 2 (Homo sapiens, UniProt O43614) for "Cc1ccc(-n2nccn2)c(C(=O)N2CCCN(c3nc4cc(Cl)ccc4o3)C[C@@H]2C)c1"
stdout: 8.70

---

Assay: Biodistribution in male ddY mouse lung administered intravenously and measured at 30 mins postinjection by gamma counter analysis
Assay type: ADME, organism-based
Settings: in vivo, iv, 0.5 h
Assay metric: Drug uptake (% ID/g)
Lab book: enter the figure in % ID/g, no units written.

The cases that follow already have their Drug uptake on record.
# Mol, Observed value
measured = [
    ("Cc1ccc(-n2nccn2)c(C(=O)N2CCCN(c3nc4cc([18F])ccc4s3)C[C@@H]2C)c1", 2.6),
    ("C[C@H]1CN(c2nc3ccc(F)cc3s2)CCCN1C(=O)c1cc([18F])ccc1-n1nccn1", 1.11),
]

stdin: What measured Drug uptake goes with "C[C@H]1CN(c2nc3ccccc3s2)CCCN1C(=O)c1cc([18F])ccc1-n1nccn1" ?
stdout: 2.2

stdin: And "Cc1ccc(-n2nccn2)c(C(=O)N2CCCN(c3nc4ccc([18F])cc4s3)C[C@@H]2C)c1" ?
stdout: 1.2

---

The following compounds are shown together with reported Drug uptake values.
Experiment: Biodistribution in male ddY mouse lung administered intravenously and measured at 2 mins postinjection by gamma counter analysis
Assay type: ADME, organism-based
Conditions: in vivo, iv
Form entry: value (% ID/g) — number only.

# example entries with known answers
# Mol, Drug uptake, % ID/g
records = [
    ("Cc1ccc(-n2nccn2)c(C(=O)N2CCCN(c3nc4ccc([18F])cc4s3)C[C@@H]2C)c1", 6.58),
    ("C[C@H]1CN(c2nc3ccc(F)cc3s2)CCCN1C(=O)c1cc([18F])ccc1-n1nccn1", 6),
    ("C[C@H]1CN(c2nc3ccccc3s2)CCCN1C(=O)c1cc([18F])ccc1-n1nccn1", 8.48),
]

Alright, here's another compound for you.
stdin: Any idea what Drug uptake was measured for "Cc1ccc(-n2nccn2)c(C(=O)N2CCCN(c3nc4cc([18F])ccc4s3)C[C@@H]2C)c1" ?
stdout: 9.43

---

Experiment: Biodistribution in male ddY mouse intestine administered intravenously and measured at 10 mins postinjection by gamma counter analysis
Type: ADME, organism-based
Details: in vivo, iv
A collection of compounds and their measured Drug uptake
Quick reminder: number only, in % ID/g, skip the unit.

These solved cases illustrate the format of a correct answer.
# Mol, Observed value
records = [
    ("Cc1ccc(-n2nccn2)c(C(=O)N2CCCN(c3nc4ccc([18F])cc4s3)C[C@@H]2C)c1", 6.23),
    ("Cc1ccc(-n2nccn2)c(C(=O)N2CCCN(c3nc4cc([18F])ccc4s3)C[C@@H]2C)c1", 8.75),
    ("C[C@H]1CN(c2nc3ccccc3s2)CCCN1C(=O)c1cc([18F])ccc1-n1nccn1", 15.7),
]

stdin: Consider the compound shown here: "C[C@H]1CN(c2nc3ccc(F)cc3s2)CCCN1C(=O)c1cc([18F])ccc1-n1nccn1" What is its recorded Drug uptake?
stdout: 8.38

---

Drug uptake by entry:
Test: Biodistribution in male ddY mouse heart administered intravenously and measured at 30 mins postinjection by gamma counter analysis
Assay type: ADME, organism-based
Conditions: in vivo, iv, 0.5 h
Give the quantity in % ID/g, number only.

Here's what some known entries look like.
# Mol, Assay metric, Observed value
data = [
    ("C[C@H]1CN(c2nc3ccc(F)cc3s2)CCCN1C(=O)c1cc([18F])ccc1-n1nccn1", "Drug uptake", 0.67),
    ("Cc1ccc(-n2nccn2)c(C(=O)N2CCCN(c3nc4cc([18F])ccc4s3)C[C@@H]2C)c1", "Drug uptake", 2.19),
    ("C[C@H]1CN(c2nc3ccccc3s2)CCCN1C(=O)c1cc([18F])ccc1-n1nccn1", "Drug uptake", 1.51),
]

Moving on to another molecule below.
stdin: What Drug uptake value was documented for this molecule, "Cc1ccc(-n2nccn2)c(C(=O)N2CCCN(c3nc4ccc([18F])cc4s3)C[C@@H]2C)c1" ?
stdout: 1.23
